Reference for the values: the supplement of paper PMC7125110

For each record, write down the corresponding self-cleavage kobs at 160 uM GlcN6P.
B1: glmS ribozyme (parent)
chain: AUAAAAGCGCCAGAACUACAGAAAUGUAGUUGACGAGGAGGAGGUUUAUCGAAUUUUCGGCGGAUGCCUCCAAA

- Variants of: B1
- Protocol notes: self-cleavage kobs at 160 uM GlcN6P; higher = faster cleavage; RNA array
- Assay context: with glucosamine-6-phosphate
This sample holds only a part of the variants without activity.
Answers are plain numbers, in s⁻¹.

[[record]]
change = "A39U U47G"
property_label = "self-cleavage kobs at 160 uM GlcN6P"
experimental_value = 0.000358


State recorded self-cleavage kobs at 160 uM GlcN6P for all listed variants.
1. C50G G60A A64G
2. A15C A39U
3. U65G C67U

Response given:
8.18e-05
0.000264
0.000142

State recorded self-cleavage kobs at 160 uM GlcN6P for all listed variants.
1. A53C G66U
2. C16G U30A

Response given:
1: 3.36e-05; 2: 3.9e-05

State recorded self-cleavage kobs at 160 uM GlcN6P for all listed variants.
1. G29U U31A
2. U56A C70U
3. A12U C50G

Response given:
1. 0.000159
2. 0.000852
3. 0.000613
